The values you see were collected from patent US20230312587A1.

Measured Percent Remaining Activity at 8 hrs after Dosing, listed per entry.
Tested on: Colo205-TCF/LEF-Luciferase (Luc) tumor
Assay: In vivo inhibition of TCF/LEF reporter activity in Colo-205 tumors
Parameters: concentration or dose not given beside the values
Conditions: TCF/LEF luciferase reporter in Colo-205 tumors, nu/nu mice, oral gavage
The answer is to be given in %; state only the numeric part.

// known answers, use as guide
COc1c(F)cc(C(=O)N2CC(Nc3nc(C)c4c(n3)N(C)[C@@H](C(C)C)C(=O)N4)C2)cc1F [Compound 542]: 22
C[C@H]1C(=O)Nc2cnc(NCc3cnn(Cc4cc(F)c(F)c(F)c4)c3)nc2N1C [Compound 42]: 20
Cc1cc(F)ncc1Cn1cc(CNc2nc(C)c3c(n2)N(C)[C@@H](C(C)C)C(=O)N3)cn1 [Compound 423]: 70
Cc1nc(NCc2cnn(Cc3ccc(C(F)(F)F)nc3)c2)nc2c1N(C)C(=O)[C@H](CCO)N2C [Compound 443]: 100
Cc1nc(N[C@H]2C[C@@H](Nc3cnc(C(F)(F)F)cn3)C2)nc2c1NC(=O)[C@H](C(C)C)N2C [Compound 557]: 20
CO[C@H](C)[C@H]1C(=O)Nc2c(C)nc(N[C@H]3C[C@@H](COc4ccc(C(F)(F)F)nc4)C3)nc2N1C [Compound 643]: 22

For Cc1nc(NCc2cnn(Cc3cc(C(F)(F)F)nn3C)c2)nc2c1NC(=O)[C@H](C)N2C [Compound 160] , what is its reported Percent Remaining Activity at 8 hrs after Dosing? 18

* * *

Tested on: HepG2 cells, shRNA targeting WFS1
Assay: Cell viability, HepG2 WFS1 shRNA
Assay type: cell-based
Quantity Kind: IC50 (µM)
The reply should contain only the number, in µM.

Record request: IC50 value, item `Cc1nc(NCc2cnn(Cc3ccc(C(F)(F)F)nc3)c2)nc2c1NC(=O)[C@H](C)N2C` 2.2

* * *

Listed here are compounds together with their documented Percent Remaining Activity at 8 hrs after Dosing.
Tested on: Colo205-TCF/LEF-Luciferase (Luc) tumor
Test: In vivo inhibition of TCF/LEF reporter activity in Colo-205 tumors
Parameters: concentration or dose not given beside the values
Conditions: TCF/LEF luciferase reporter in Colo-205 tumors, nu/nu mice, oral gavage
Report the figure in % without appending any unit label.

Cc1nc(N[C@H]2C[C@@H](Nc3cnc(C(F)(F)F)cn3)C2)nc2c1NC(=O)[C@H](C)N2C [Compound 578]: 47

Proceed to the following item.
Look up Percent Remaining Activity at 8 hrs after Dosing for this compound: Cc1nc(NCc2cnn(Cc3ccc(C(F)(F)F)nc3)c2)nc2c1NC(=O)[C@H](C(C)(C)C)N2C [Compound 436] 16

* * *

Target: UniProtKB O76024
Quantity Kind: IC50

Cc1nc(N[C@@H]2CC[C@@H](n3ccc(C(F)(F)F)n3)C2)nc2c1NC(=O)[C@H](C)N2C (single isomer, unassigned): 60 to 600 nM
Cc1nc(NCc2cnn(Cc3cc(C(F)(F)F)nn3C)c2)nc2c1NC(=O)[C@H](C(C)C)N2C: 60 to 600 nM
Cc1nc(NCc2cnn(Cc3ccnc(C(F)(F)F)c3)c2)nc2c1NC(=O)[C@H](C)N2C: 60 to 600 nM

Item: `Cc1nc(NCc2cnn(CCc3ccc(F)cc3)c2)nc2c1N(C)C(=O)[C@H](C)N2C` Test system: UniProtKB O76024 Read-out: IC50 Value: ? 600 to 3000 nM

* * *

Test system: Colo205-TCF/LEF-Luciferase (Luc) tumor
Assay: In vivo inhibition of TCF/LEF reporter activity in Colo-205 tumors
Set-up: concentration or dose not given beside the values
Conditions: TCF/LEF luciferase reporter in Colo-205 tumors, nu/nu mice, oral gavage
Protocol: Colo205-TCF/LEF-Luciferase (Luc) tumor cells were expanded in complete DMEM cell culture media [DMEM (Life Technologies, product #11960-051) media supplemented with 10% FBS (Hyclone, catalog #SH30071.03), antimycotic/antibiotic (Life Technologies, product #15240-062), and Glutamax (Life Technologies, product #35050-061)] with 1 ug/ml puromycin. […] The tumor cells were triturated, counted, and pelleted by centrifugation. […]
Quantity Kind: Percent Remaining Activity at 8 hrs after Dosing (%)
Your answer is read as %, so omit the unit and give the number.

Report Percent Remaining Activity at 8 hrs after Dosing for Cc1nc(NCc2cnn(Cc3ccc(C(F)(F)F)nc3[C@@H](C)O)c2)nc2c1NC(=O)[C@H](C)N2C (single isomer, unassigned) please. 28

Could you share which Percent Remaining Activity at 8 hrs after Dosing value was measured for `Cc1nc(NCc2cnn(Cc3cccc(C(C)C)c3)c2)nc2c1NC(=O)[C@H](C)N2C` ? 34

Dear colleague, I am looking for the recorded Percent Remaining Activity at 8 hrs after Dosing of the following compound: `Cc1nc(NC2CN(C(=O)c3cc(F)c(F)c(F)c3)C2)nc2c1NC(=O)[C@H](C(C)C)N2C` 17

Quick one: Percent Remaining Activity at 8 hrs after Dosing of `Cc1nc(NCc2cnn(Cc3ccc(F)nc3)c2)nc2c1NC(=O)[C@H](C(C)(C)C)N2C` ? 20

# input compound: `Cc1nc(NCc2cnn(Cc3ccc(OC(C)C)nc3)c2)nc2c1NC(=O)[C@H](C)N2C` ; wanted: its Percent Remaining Activity at 8 hrs after Dosing 43

* * *

Target: HEK293 membranes over-expressing WFS-1 (Homo sapiens (Human))
Sequence (O76024 whole entry): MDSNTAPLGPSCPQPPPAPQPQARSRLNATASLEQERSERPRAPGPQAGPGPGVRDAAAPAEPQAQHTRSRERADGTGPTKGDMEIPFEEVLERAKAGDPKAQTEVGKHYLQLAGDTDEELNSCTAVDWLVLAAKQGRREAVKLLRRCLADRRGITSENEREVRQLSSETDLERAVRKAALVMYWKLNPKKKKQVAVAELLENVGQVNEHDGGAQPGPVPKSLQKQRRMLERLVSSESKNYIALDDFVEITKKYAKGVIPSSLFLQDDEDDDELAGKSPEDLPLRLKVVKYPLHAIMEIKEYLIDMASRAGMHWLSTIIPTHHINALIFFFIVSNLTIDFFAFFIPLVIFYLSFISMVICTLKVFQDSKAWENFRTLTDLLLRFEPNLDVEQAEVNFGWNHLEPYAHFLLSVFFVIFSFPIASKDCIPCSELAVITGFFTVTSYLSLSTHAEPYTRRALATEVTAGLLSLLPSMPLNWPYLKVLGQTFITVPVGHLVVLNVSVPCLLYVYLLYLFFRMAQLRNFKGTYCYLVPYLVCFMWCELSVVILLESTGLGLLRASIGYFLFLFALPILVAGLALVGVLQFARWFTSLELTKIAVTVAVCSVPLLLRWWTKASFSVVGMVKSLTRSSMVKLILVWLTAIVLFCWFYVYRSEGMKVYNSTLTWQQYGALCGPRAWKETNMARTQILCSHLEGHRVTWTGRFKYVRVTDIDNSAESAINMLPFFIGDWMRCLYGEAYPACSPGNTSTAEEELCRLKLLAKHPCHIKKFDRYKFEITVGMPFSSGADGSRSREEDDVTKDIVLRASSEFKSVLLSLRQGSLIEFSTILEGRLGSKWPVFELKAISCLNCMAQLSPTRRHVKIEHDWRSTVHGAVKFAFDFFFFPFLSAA
pIC50: −log10 of the molar value.
Quantity Kind: pIC50

CC(=O)N(Cc1cnn(Cc2ccc(C(F)(F)F)nc2)c1)c1nc(C)c2c(n1)N(C)[C@@H](C)C(=O)N2: ≤ 5.52
Cc1nc(N[C@H]2C[C@H](Oc3ccnc(C(F)(F)F)c3)C2)nc2c1NC(=O)[C@H](C)N2C: > 7.22
Cc1nc(NCc2cnn([C@@H](C)c3ccc(C(F)(F)F)nc3)c2)nc2c1NC(=O)[C@H](C)N2C: 6.22 to 7.22

pIC50 of `CN1C(=O)C(C)(C)N(C)c2nc(NCc3cnn(Cc4cccnc4C(F)(F)F)c3)ncc21` on HEK293 membranes over-expressing WFS-1 (Homo sapiens (Human))? 6.22 to 7.22

* * *

Reported pIC50 is given for each of the following molecules.
System: Hek293 WFS1 over-expressor
Test: In vitro cell viability (CellTiter-Glo), Hek293 WFS1 over-expressor
Assay type: cell-based
Details: Homo sapiens, HEK293, Hek293 WFS1 over-expressing cells; read-out: Hek293 WFS1 viability
pIC50: −log10 of the molar value.

Would you please look over these solved cases?
COc1cc(F)ccc1Cn1cc(CNc2nc(C)c3c(n2)N(C)[C@@H](C)C(=O)N3)cn1: > 7.22
Cc1nc(NCc2cnn(CCc3ccc(F)cc3)c2)nc2c1NC(=O)[C@H](C)N2C: 6.22 to 7.22
Cc1nc(NCc2cnn(Cc3ccc(F)cc3)c2)nc2c1NC(=O)[C@H](C)N2C: > 7.22
Cc1nc(NCc2cnn(Cc3ccc(C(F)(F)F)nc3)c2)nc2c1NC(=O)[C@H](C(C)C)N2C: > 7.22
Cc1nc(NCc2cnn(Cc3ccc(C(F)(F)F)nc3)c2)nc2c1NC(=O)C1(CCC1)N2C: > 7.22
Cc1nc(NCc2cnn(Cc3cc(C(F)(F)F)nn3C)c2)nc2c1NC(=O)[C@H](C)N2C: > 7.22
Cc1cc(F)ncc1Cn1cc(CNc2nc(C)c3c(n2)N(C)[C@@H](C)C(=O)N3)cn1: > 7.22

Turning to the following molecule.
Which pIC50 is listed for `Cc1nc(NCc2cnn([C@@H]3CCN(c4ccc(F)cc4)C3)c2)nc2c1NC(=O)[C@H](C)N2C` ? > 7.22

* * *

System: Hek293 WFS1 over-expressor
Assay: In vitro cell viability (CellTiter-Glo), Hek293 WFS1 over-expressor
Type: cell-based
Conditions: Homo sapiens, HEK293, Hek293 WFS1 over-expressing cells; read-out: Hek293 WFS1 viability
pIC50: −log10 of the molar value.
Overview of reported pIC50 across a group of compounds:

Illustrative cases are given below, each with its answer.
Cc1nc(N[C@H]2C[C@@H](Sc3cc(F)c(F)c(F)c3)C2)nc2c1NC(=O)[C@H](C)N2C: > 7.22
Cc1nc(N[C@H]2C[C@H](Oc3ccc(F)nc3)C2)nc2c1NC(=O)[C@H](C)N2C: 6.22 to 7.22
Cc1nc(NCc2cnn(Cc3cnc(Cl)c(F)c3)c2)nc2c1NC(=O)[C@H](C(C)C)N2C: > 7.22

Find the measured pIC50: item Cc1nc(NCc2cnn(Cc3ccc(C(F)(F)F)nc3C(C)O)c2)nc2c1NC(=O)[C@H](C)N2C (stereo partly drawn) , target or system Hek293 WFS1 over-expressor. 6.22 to 7.22

Notebook entry, Hek293 WFS1 over-expressor assay: pIC50 of Cc1nc(N[C@H]2CC[C@H](n3ccc(C(F)(F)F)n3)C2)nc2c1NC(=O)[C@H](C)N2C (single isomer, unassigned) = ? 6.22 to 7.22
